# target.desc: Grb2 SH3 N-domain
# assay.method.text: other fluorescence titration
property.measured: Kd (µM)
Record the value in µM, omitting the unit from your answer.

# input binder: Ac-PRVPPPPVRR-NH2 [scrambled peptide Ac-P-R-V-P-P-P-P-V-R-R-NH2 (13)] ; wanted: its Kd
173
